Where these numbers come from: the Immune Epitope Database (IEDB)

molecular target: HLA-A*02:01; assay: IEDB peptide-MHC binding, purified MHC/competitive/radioactivity; filed as Kd, often an IC50 or EC50 that approximates it; bounds were set here for any values at or beyond the usual limits of such assays; details: source organism: Dengue virus 4 Philippines/H241/1956
Listing of recorded pKd by entry.
Value format note: pKd is -log10 of concentration (mol/L); just state the number.

Previously resolved entries follow.
AVASGLLWV = 7.72
GLLCLTLFV = 8.61
GLNTFTNMEV = 8.42

Could you now consider this next sequence?
Determine from records and report pKd for TIMAVLFVV
7.03

* * *

biological target: HLA-A*02:06; test: IEDB peptide-MHC binding, purified MHC/competitive/radioactivity; filed as Kd, often an IC50 or EC50 that approximates it; bounds were set here for any values at or beyond the usual limits of such assays; settings: source organism: Vaccinia virus WR
Checkbox rule: Kd lower than 2000 nM = criterion met; Kd not lower than 2000 nM = criterion not met.

EVGTNFGTI = criterion not met
STYPGNTFV = criterion met
SVDFVVNGHT = criterion not met
GVMYAFTTPL = criterion met
KIIAVFDSKL = criterion met
VMYAFTTPL = criterion met

Dear colleague, could you confirm whether Kd of FVNFNSVKNL falls below 2000 nM? Thanks.
criterion not met

Dear colleague, could you confirm whether Kd of WIKNLETYT falls below 2000 nM? Thanks.
criterion not met

Dear colleague, could you confirm whether Kd of YTLIYRQLT falls below 2000 nM? Thanks.
criterion not met

Dear colleague, could you confirm whether Kd of KLFKRERDA falls below 2000 nM? Thanks.
criterion not met

Dear colleague, could you confirm whether Kd of SMYGKAFNHA falls below 2000 nM? Thanks.
criterion met

Dear colleague, could you confirm whether Kd of TILATLNTLI falls below 2000 nM? Thanks.
criterion met

Dear colleague, could you confirm whether Kd of YASLTTIGT falls below 2000 nM? Thanks.
criterion met

Dear colleague, could you confirm whether Kd of GIAIFNNRNL falls below 2000 nM? Thanks.
criterion not met

Dear colleague, could you confirm whether Kd of YVLFVKKML falls below 2000 nM? Thanks.
criterion not met

Dear colleague, could you confirm whether Kd of FQESFYEDI falls below 2000 nM? Thanks.
criterion met

Dear colleague, could you confirm whether Kd of SIKMIYDLNA falls below 2000 nM? Thanks.
criterion met

Dear colleague, could you confirm whether Kd of DVNSVQFSI falls below 2000 nM? Thanks.
criterion not met
